Source of measurements: patent US20240174618A1

Tested on: Triticum aestivum (TRZAS)
Test: F. Post-emergence effect on useful plants, TRZAS
Type: in vivo
Settings: useful plant, application rate 80 g/ha
As shown below, each of these molecules has a reported Post-emergence efficacy against TRZAS in % value.
Please reply with the bare figure in % and do not write the unit itself.

CCCCCS(=O)(=O)Oc1ccccc1Oc1ncc(Cl)cn1    0
C=CCS(=O)(=O)Oc1ccccc1Oc1ncc(Cl)cn1    0
O=S(=O)(CCC(F)(F)F)Oc1c(F)cccc1Oc1ncc(Br)cn1    10
O=S(=O)(CCCCl)Oc1ccccc1Oc1ncc(Cl)cn1    0
N#Cc1cccc(Oc2ncc(Cl)cn2)c1OS(=O)(=O)CCC(F)(F)F    0
O=S(=O)(CCCC(F)(F)F)Oc1c(Cl)cccc1Oc1ncc(Cl)cn1    0
O=S(=O)(CCCC(F)F)Oc1c(F)cccc1Oc1ncc(Cl)cn1    10
O=S(=O)(CCC(F)=C(F)F)Oc1c(F)cccc1Oc1ncc(Cl)cn1    20
O=S(=O)(CCC(F)(F)F)Oc1ccccc1Oc1ncc(Cl)cn1    20
O=S(=O)(CCC(F)(F)F)Oc1c(F)cccc1Oc1ncc(F)cn1    0

The recorded Post-emergence efficacy against TRZAS in % for C=CCCS(=O)(=O)Oc1c(F)cccc1Oc1ncc(Cl)cn1 is 0

The recorded Post-emergence efficacy against TRZAS in % for Cc1cccc(Oc2ncc(F)cn2)c1OS(=O)(=O)CCCC(F)(F)F is 0

The recorded Post-emergence efficacy against TRZAS in % for COCCS(=O)(=O)Oc1c(F)cccc1Oc1ncc(Cl)cn1 is 0
